Recorded apparent KD of MS2 coat protein values for a group of sequences are listed next.
tested on: MS2 coat protein; experiment: apparent KD of MS2 coat protein; higher = weaker reporter binding; details: Eterna round: R107; input ligand: tryptophan 2.4 mM
Attribute Measured: apparent KD of MS2 coat protein

- Biopolymer Sequence: "UUGACAUGAGGAUCACCCAUGUUAGCUGAAGGAGCGAGGUAGUACUCAGGUAGGUCGCAGAGAGCAGAGUUAGUUGUUCUCAUGU [X-ArgiA-ms2@4]"
  Readout Value: "18.6 nM"
- Biopolymer Sequence: "AUCGUACCUGAUGAUACCAGCAAUUGCUCGUAACAUGAGGAUCACCCAUGUGACCAGUGAUGCCCUUGGCAGCAUGAUCGGUGCA [Same State - Theophylline B (Freestyle 20)]"
  Readout Value: "45.8 nM"
- Biopolymer Sequence: "AGGACGGCCGGAAGGAGCGGUACAUGAGGAUCACCCAUGUACCUCUGGGCAUCCGUAGUGUGCCAGGUAGGUCGCCGGUUGCGGG [Veatgema]"
  Readout Value: "10.8 nM"
- Biopolymer Sequence: "ACCUGUACGAAAAGUGCAGGACAUGAAUAACGAGGACCGGUACGGCCGCCACUCGGGUAAUAACCUGAGGAUCACCCGGGUCAUG [TrypAS 6 #AlternativeMS2 #Zipper #StaticStem]"
  Readout Value: "27.5 nM"
